Recorded MIC-fold improvement vs. vancomycin, one value per entry.
test system: S. aureus VRSA; experiment: MIC, broth microdilution, vancomycin-resistant S. aureus (VRSA); format: cell-based, Staphylococcus aureus; conditions: VRSA; ratio of MIC of vancomycin and MIC of analogue
REPORTED METRIC: MIC-fold improvement vs. vancomycin

MOLECULE	TARGET ENTITY	MEAS VALUE
C#Cc1ccc(NC(=O)CNC(=O)C2NC(=O)C3NC(=O)C(NC(=O)C4NC(=O)C(CC(N)=O)NC(=O)C(NC(=O)C(CC(C)C)NC)C(O)c5ccc(c(Cl)c5)Oc5cc4cc(c5OC4OC(CO)C(O)C(O)C4OC4CC(C)(N)C(O)C(C)O4)Oc4ccc(cc4Cl)C3O)c3ccc(O)c(c3)-c3c(O)cc(O)cc32)cc1 (stereo not drawn) [Vanc-N]	S. aureus VRSA	64
C#Cc1ccc2cc(C(=O)NCCCNC(=O)[C@H]3NC(=O)[C@H]4NC(=O)[C@H](NC(=O)[C@@H]5NC(=O)[C@H](CC(N)=O)NC(=O)[C@H](NC(=O)[C@@H](CC(C)C)NC)[C@H](O)c6ccc(c(Cl)c6)Oc6cc5cc(c6O[C@@H]5O[C@H](CO)[C@@H](O)[C@H](O)[C@H]5O[C@H]5C[C@](C)(N)[C@H](O)[C@H](C)O5)Oc5ccc(cc5Cl)[C@H]4O)c4ccc(O)c(c4)-c4c(O)cc(O)cc43)ccc2c1 [Vanc-T]	S. aureus VRSA	64
CNC(CC(C)C)C(=O)NC1C(=O)NC(CC(N)=O)C(=O)NC2C(=O)NC3C(=O)NC(C(=O)NC(C(=O)NCCNC(=O)C=Cc4ccc(NS(=O)(=O)c5ccc(Cl)cc5)cc4)c4cc(O)cc(O)c4-c4cc3ccc4O)C(O)c3ccc(c(Cl)c3)Oc3cc2cc(c3OC2OC(CO)C(O)C(O)C2OC2CC(C)(N)C(O)C(C)O2)Oc2ccc(cc2Cl)C1O (stereo not drawn) [Vanc-62]	S. aureus VRSA	128
CNC(CC(C)C)C(=O)NC1C(=O)NC(CC(N)=O)C(=O)NC2C(=O)NC3C(=O)NC(C(=O)NC(C(=O)NCC(=O)Nc4ccc(C=Cc5ccc(N)cc5)cc4)c4cc(O)cc(O)c4-c4cc3ccc4O)C(O)c3ccc(c(Cl)c3)Oc3cc2cc(c3OC2OC(CO)C(O)C(O)C2OC2CC(C)(N)C(O)C(C)O2)Oc2ccc(cc2Cl)C1O (stereo not drawn) [Vanc-58]	S. aureus VRSA	128
CNC(CC(C)C)C(=O)NC1C(=O)NC(CC(N)=O)C(=O)NC2C(=O)NC3C(=O)NC(C(=O)NC(C(=O)NCC(=O)NC4c5ccccc5-c5ccccc54)c4cc(O)cc(O)c4-c4cc3ccc4O)C(O)c3ccc(c(Cl)c3)Oc3cc2cc(c3OC2OC(CO)C(O)C(O)C2OC2CC(C)(N)C(O)C(C)O2)Oc2ccc(cc2Cl)C1O (stereo not drawn) [Vanc-90]	S. aureus VRSA	128
CN[C@H](CC(C)C)C(=O)N[C@H]1C(=O)N[C@@H](CC(N)=O)C(=O)N[C@H]2C(=O)N[C@H]3C(=O)N[C@H](C(=O)N[C@H](C(=O)NCCNC(=O)/C=C/c4ccc(NS(=O)(=O)c5ccc(C(C)C)cc5)cc4)c4cc(O)cc(O)c4-c4cc3ccc4O)[C@H](O)c3ccc(c(Cl)c3)Oc3cc2cc(c3O[C@@H]2O[C@H](CO)[C@@H](O)[C@H](O)[C@H]2O[C@H]2C[C@](C)(N)[C@H](O)[C@H](C)O2)Oc2ccc(cc2Cl)[C@H]1O [Vanc-56]	S. aureus VRSA	256
